- experimental-protocol: AUC (0 to 24 hrs) in mouse at 10 mg/kg, po
- Format: ADME, organism-based
- Parameters: time < 24 hr, dose 10 mg/kg, route oral
- measurement-context: plasma
assay-endpoint: AUC(0-t) at 24 h (µM·h)
Entry rule: numbers only, all in µM·h.

What the record says about `COC(=O)N1CC2(CC2)C[C@H](C(=O)NO)[C@H]1C(=O)N1CC=C(c2ccccc2)C1` : AUC(0-t) at 24 h is 2.8

----------
pIC50 overview
- test-target: Disintegrin and metalloproteinase domain-containing protein 10 (Homo sapiens)
- Sequence (O14672 whole entry): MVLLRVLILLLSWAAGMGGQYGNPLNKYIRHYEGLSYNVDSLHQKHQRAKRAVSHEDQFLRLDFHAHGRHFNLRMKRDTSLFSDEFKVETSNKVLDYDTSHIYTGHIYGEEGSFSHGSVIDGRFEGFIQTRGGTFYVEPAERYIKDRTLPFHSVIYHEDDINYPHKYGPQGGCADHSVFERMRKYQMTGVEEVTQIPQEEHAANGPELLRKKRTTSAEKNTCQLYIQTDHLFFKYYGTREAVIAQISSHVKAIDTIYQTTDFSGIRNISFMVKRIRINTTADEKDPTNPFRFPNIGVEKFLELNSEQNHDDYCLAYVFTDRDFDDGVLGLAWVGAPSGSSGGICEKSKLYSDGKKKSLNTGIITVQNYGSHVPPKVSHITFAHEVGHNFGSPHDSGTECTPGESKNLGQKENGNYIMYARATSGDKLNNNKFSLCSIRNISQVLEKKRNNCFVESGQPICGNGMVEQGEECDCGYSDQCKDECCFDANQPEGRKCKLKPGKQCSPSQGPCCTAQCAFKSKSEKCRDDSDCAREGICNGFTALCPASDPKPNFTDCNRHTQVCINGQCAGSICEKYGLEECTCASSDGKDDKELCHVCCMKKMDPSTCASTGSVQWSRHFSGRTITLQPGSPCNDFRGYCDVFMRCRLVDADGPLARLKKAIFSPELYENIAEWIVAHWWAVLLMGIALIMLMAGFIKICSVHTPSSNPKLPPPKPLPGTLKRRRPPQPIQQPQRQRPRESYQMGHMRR
- experimental-protocol: Binding affinity to ADAM10
In plain terms, pIC50 is the concentration in mol/L turned into minus its base-10 logarithm.

CC(C)c1cccc(C2CCN(C(=O)[C@H]3NCC4(CC4)C[C@@H]3C(=O)NO)CC2)c1 = 7.80
Cc1cccc(C2CCN(C(=O)[C@H]3NCC4(CC4)C[C@@H]3C(=O)NO)CC2)c1 = 6.71
Cc1cccc(C2=CCN(C(=O)[C@H]3NCC4(CC4)C[C@@H]3C(=O)NO)CC2)c1 = 7.60
CC(C)c1cccc(N2CCN(C(=O)[C@H]3NCC4(CC4)C[C@@H]3C(=O)NO)CC2)c1 = 5.96
O=C(NO)[C@H]1CC2(CC2)CN[C@@H]1C(=O)N1CC=C(c2cc(Cl)cc(Cl)c2)CC1 = 7.00

# evaluate next
What the record says about `O=C(NO)[C@H]1CC2(CC2)CN[C@@H]1C(=O)N1CCN(c2cccc(Cl)c2)CC1` : pIC50 is 7.85
